Data origin: patent US5208223A

# target of assay: porcine pancreatic PLA2 (Sus scrofa, UniProt P00592)
# Construct: purchased Sigma
# Sequence (P00592 23-146): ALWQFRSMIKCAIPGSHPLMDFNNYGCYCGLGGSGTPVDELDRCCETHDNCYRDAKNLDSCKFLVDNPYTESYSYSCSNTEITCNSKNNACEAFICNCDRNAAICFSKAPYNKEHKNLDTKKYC
# method notes: PLA2 assay: in vitro porcine pancreatic phospholipase A2, preincubation of drug+enzyme, substrate 2 nM
# Assay type: biochemical
# details: dose 10 μ/ml; preincubation; subs. con. 2; read-out: % Inh.
Classification field: rule met = inhibition at 10 µg/mL at or over 60%; rule not met = inhibition at 10 µg/mL under 60%.

Reference set (5 entries):
{"compound": "CCCCCCCCCCCCCCCCOCC(COP(=O)([O-])OCC[N+](C)(C)C)CC1CO1 (centres unmarked)", "category label": "rule met"}
{"compound": "CCCCCCCCCCCCCCCCS(=O)(=O)CCCOP(=O)([O-])OCC[N+](C)(C)C", "category label": "rule met"}
{"compound": "CCCCCCCCCCCCCCCCOCC(COP(=O)([O-])OCC[N+](C)(C)C)CC(O)C(F)(F)CCCCCCCCCCCCCCCC (centres unmarked)", "category label": "rule not met"}
{"compound": "CCCCCCCCCCCCCCCCOCC(CC=NO)COP(=O)([O-])OCC[N+](C)(C)C (centres unmarked)", "category label": "rule not met"}
{"compound": "CCCCCCCCCCCCCCCCOCC(COP(=O)([O-])OCC[N+](C)(C)C)CC(N)CCCCCCCCCCCCCCCC (centres unmarked)", "category label": "rule met"}

Exam item: In plain terms: is recorded inhibition at 10 µg/mL at least 60% for CCCCCCCCCCCCCCCCC#CCC(COCCCCCCCCCCCCCCCC)COP(=O)([O-])OCC[N+](C)(C)C (centres unmarked) ?
Marked response: rule not met

* * *

// inhibition at 25 µg/mL lookup, one value per entry
# target of assay: porcine pancreatic PLA2 (Sus scrofa)
# Construct: purchased Sigma
# method notes: MHPLA2 assay: in vitro porcine pancreatic phospholipase A2, mixed micelle design, [s]=10 μm
# Assay type: biochemical
# details: dose 25 μ/ml, subs. con. 10, read-out: % Inh.
Give the number; % is assumed, so skip it.

Please review the following examples before continuing.
{"compound": "CCCCCCCCCCCCCCCCOCC(COP(=O)([O-])OCC[N+](C)(C)C)OC(=O)CBr (stereo not drawn)", "measure unit": "%", "inhibition at 25 µg/mL": 78}
{"compound": "CCCCCCCCCCCCCCCCC#CCC(COCCCCCCCCCCCCCCCC)COP(=O)([O-])OCC[N+](C)(C)C (stereo not drawn)", "measure unit": "%", "inhibition at 25 µg/mL": 16}
{"compound": "CCCCCCCCCCCCCCCCS(=O)(=O)CCCOP(=O)([O-])OCC[N+](C)(C)C", "measure unit": "%", "inhibition at 25 µg/mL": 24}
{"compound": "CCCCCCCCCCCCCCCCOCC(COP(=O)([O-])OCC[N+](C)(C)C)CP(=O)(OCC)OCC (stereo not drawn)", "measure unit": "%", "inhibition at 25 µg/mL": 45}
{"compound": "CCCCCCCCCCCCCCCCOCC(COP(=O)([O-])OCC[N+](C)(C)C)CC(N)CCCCCCCCCCCCCCCC (stereo not drawn)", "measure unit": "%", "inhibition at 25 µg/mL": 78}

We next turn to a different compound, shown below.
Exam item: Missing value: inhibition at 25 µg/mL, porcine pancreatic PLA2 (Sus scrofa), entry CCCCCCCCCCCCCCCCOCC(COP(=O)([O-])OCC[N+](C)(C)C)CSCCCCCCCCCCCCCCCC (stereo not drawn) . Fill in?
Marked response: 81
